- assay_protocol: chemical genetic growth profiling, strain panel (AID 1159580);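 further: tested at 20 µM; growth read once vehicle control cultures reached saturation at 30 °C; 1 = growth at the plate median or of vehicle wells; lower values mean less growth of the strain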
- settings: S. cerevisiae deletion strains, growth OD, locus YMR205C, strain PFK2
Hit rate of the full screen: of about 5,500 compounds, about 2,000 (36%) were called active. About 18% were inconclusive and are not listed. No stated cut-off is given here; in the data, active means normalized growth mostly below about 0.91 (no sharp cut-off); inconclusive means no clear call, values can overlap the other calls; inactive means mostly above about 0.92. Some of the results follow.
Entry note: the call must match one of active, inactive

Ask: For CN(C)CCC=C1c2ccccc2C=Cc2ccccc21 , what call appears in the results of this test?
Result: inactive

Ask: For CN(C)CCC=C1c2ccccc2CCc2ccccc21 , what call appears in the results of this test?
Result: inactive

Ask: For S=c1ccss1 , what call appears in the results of this test?
Result: inactive

Further cases:
Ask: For CN(C)CC/C=C1/c2ccccc2COc2ccccc21 , what call appears in the results of this test?
Result: inactive

Ask: For CNCCC=C1c2ccccc2CCc2ccccc21 , what call appears in the results of this test?
Result: inactive

Ask: For CN(C)C(=O)Oc1cc(OC(=O)N(C)C)cc(C(O)CNC(C)(C)C)c1 (configuration not stated) , what call appears in the results of this test?
Result: inactive

Ask: For O=C(O)c1cn(-c2ccc(F)cc2)c2cc(N3CCNCC3)c(F)cc2c1=O , what call appears in the results of this test?
Result: inactive

Ask: For O=c1c2ccccc2[se]n1-c1ccccc1 , what call appears in the results of this test?
Result: active

Ask: For CC(C)Oc1ccc2c(=O)cc(-c3ccccc3)oc2c1 , what call appears in the results of this test?
Result: active

====

- assay_protocol: chemical genetic growth profiling, strain panel (AID 1159580)
- settings: S. cerevisiae deletion strains, growth OD, locus YPL051W, strain arl3, hits give low values
The whole screen tested about 5,500 compounds, of which about 2,000 (36%) were called active. About 18% were inconclusive and are not listed. The list shows a part of the results.
recorded_endpoint: normalized growth
Enter a number only.

Check out these entries, answers already filled in.
Ask: Would you mind telling me what normalized growth value was observed for CCCCOc1cc(CC2CNC(=O)N2)ccc1OC (stereo not given) ?
Result: 0.963

Ask: Would you mind telling me what normalized growth value was observed for O=c1cc(-c2ccc(O)cc2)oc2ccc(O)cc12 ?
Result: 0.971

Ask: Would you mind telling me what normalized growth value was observed for CCOC(=O)C1C(C=C(C)C)C1(C)C (stereo not given) ?
Result: 1

Ask: Would you mind telling me what normalized growth value was observed for CN(C)CCC=C1c2ccccc2C=Cc2ccccc21 ?
Result: 0.964

Ask: Would you mind telling me what normalized growth value was observed for CNCCC=C1c2ccccc2CCc2ccccc21 ?
Result: 0.956

Further cases:
Ask: Would you mind telling me what normalized growth value was observed for CCn1cc(C(=O)O)c(=O)c2cc(F)c(N3CCNCC3)cc21 ?
Result: 0.994

Ask: Would you mind telling me what normalized growth value was observed for CC(C)=CCc1c2c(c(O)c3c(=O)c(O)c(-c4ccccc4)oc13)C=CC(C)(C)O2 ?
Result: 0.48

Ask: Would you mind telling me what normalized growth value was observed for CN(C)CCC=C1c2ccccc2CCc2ccccc21 ?
Result: 0.957

Ask: Would you mind telling me what normalized growth value was observed for CC1=CCc2c(cc3oc(C)cc(=O)c3c2O)OC1 ?
Result: 0.976

====

- assay_protocol: chemical genetic growth profiling, strain panel (AID 1159580)
- settings: S. cerevisiae deletion strains, growth OD, locus YNL298W, strain CLA4 (second series)
Hit rate of the full screen: of about 5,500 compounds, about 2,000 (36%) were called active. Not shown: some 18% with an inconclusive outcome. No stated cut-off is given here; in the data, active means normalized growth mostly below about 0.91 (no sharp cut-off); inconclusive means no clear call, values can overlap the other calls; inactive means mostly above about 0.92. The list shows a part of the results.
Entry note: the call must match one of True (active), False (inactive)

Ask: For C=CCn1c(Sc2ncc([N+](=O)[O-])s2)n[nH]c1=O , what call appears in the results of this test?
Result: True

Ask: For CCCCCCCCCCc1ccc(-c2ccccc2)cc1 , what call appears in the results of this test?
Result: False

Ask: For Clc1ccc(-c2csc(-c3ccno3)n2)s1 , what call appears in the results of this test?
Result: False

Ask: For Cc1ccc(C(=O)c2ccccc2[N+](=O)[O-])cc1 , what call appears in the results of this test?
Result: False

Ask: For c1ccc(Sc2c(-c3ccccc3)nc3ccccn23)cc1 , what call appears in the results of this test?
Result: True

Further cases:
Ask: For O=C(N/N=C\c1ccccc1Cl)N/N=C\c1ccccc1Cl , what call appears in the results of this test?
Result: True

Ask: For O=C(N/N=C\c1ccccc1Cl)c1cccnc1 , what call appears in the results of this test?
Result: False

Ask: For Cc1ccc(COc2ccc(C)nc2[N+](=O)[O-])cc1 , what call appears in the results of this test?
Result: True

Ask: For CC1(C)CC(=O)c2c(S(C)(=O)=O)sc(Br)c2C1 , what call appears in the results of this test?
Result: False

Ask: For CCN1CN=C(SCc2ccc(C)cc2)NC1 , what call appears in the results of this test?
Result: False

Ask: For COC(=O)C1=C(Nc2ccc(Cl)cc2)CSC1 , what call appears in the results of this test?
Result: True

Ask: For CCCCCn1c(Sc2ncc([N+](=O)[O-])s2)n[nH]c1=O , what call appears in the results of this test?
Result: True

====

- assay_protocol: chemical genetic growth profiling, strain panel (AID 1159580);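 further: tested at 20 µM; growth read once vehicle control cultures reached saturation at 30 °C; 1 = growth at the plate median or of vehicle wells; lower values mean less growth of the strain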
- settings: S. cerevisiae deletion strains, growth OD, locus YNL248C, strain rpa49
The whole screen tested about 5,500 compounds, of which about 2,000 (36%) were called active. Another 18% or so got no clear call; they are omitted. No stated cut-off is given here; in the data, active means normalized growth mostly below about 0.91 (no sharp cut-off); inconclusive means no clear call, values can overlap the other calls; inactive means mostly above about 0.92. Some of the results follow.
Entry note: the call must match one of active, inactive

Ask: For COC(=O)C1=C(C)NC(C)=C(C(=O)OC)C1c1ccccc1[N+](=O)[O-] , what call appears in the results of this test?
Result: inactive

Ask: For CC1=CCc2c(cc3oc(C)cc(=O)c3c2O)OC1 , what call appears in the results of this test?
Result: inactive

Ask: For C[n+]1cc2c3c(ccc2c2ccc4cc5c(cc4c21)OCO5)OCO3 , what call appears in the results of this test?
Result: active

====

- assay_protocol: chemical genetic growth profiling, strain panel (AID 1159580);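 further: tested at 20 µM; growth read once vehicle control cultures reached saturation at 30 °C; 1 = growth at the plate median or of vehicle wells; lower values mean less growth of the strain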
- settings: S. cerevisiae deletion strains, growth OD, locus YOR184W, strain ser1
Screen size: about 5,500 compounds; about 2,000 (36%) were called active. Roughly 18% stayed inconclusive and do not appear here. No stated cut-off is given here; in the data, active means normalized growth mostly below about 0.91 (no sharp cut-off); inconclusive means no clear call, values can overlap the other calls; inactive means mostly above about 0.92. Some of the results follow.
Entry note: the call must match one of active, inactive

These solved cases illustrate the format of a correct answer.
Ask: For NCCc1cccc(O)c1 , what call appears in the results of this test?
Result: inactive

Ask: For COc1cccc2c1cc([N+](=O)[O-])c1c(C(=O)O)cc3c(c12)OCO3 , what call appears in the results of this test?
Result: inactive

Ask: For COC(=O)C[C@H]1C(C)(C)C(=O)[C@@H]2CC3=C4CC(OC)O[C@@H](c5ccoc5)[C@]4(C)CCC3[C@@]1(C)C2=O (stereo partly specified) , what call appears in the results of this test?
Result: inactive

Ask: For COc1ccc(-c2cc(=O)c3c(OC(C)=O)cc(OC(C)=O)cc3o2)cc1 , what call appears in the results of this test?
Result: inactive

Ask: For Clc1ccc(Cl)cc1 , what call appears in the results of this test?
Result: inactive

Ask: For CN(C)CCC=C1c2ccccc2C=Cc2ccccc21 , what call appears in the results of this test?
Result: inactive

Ask: For CN(C)CCC=C1c2ccccc2CCc2ccccc21 , what call appears in the results of this test?
Result: inactive

Ask: For COc1cc([C@@H]2c3cc4c(cc3[C@H](OC(C)=O)[C@H]3COC(=O)[C@H]23)OCO4)cc(OC)c1OC , what call appears in the results of this test?
Result: inactive

Further cases:
Ask: For O=c1c(-c2cc(O)c(O)c(O)c2)coc2cc(O)c(O)c(O)c12 , what call appears in the results of this test?
Result: inactive

Ask: For COc1ccc(-c2coc3cc(O)cc(O)c3c2=O)cc1 , what call appears in the results of this test?
Result: active

Ask: For CC(=O)O.CC(=O)O.[Cd] , what call appears in the results of this test?
Result: active

====

- assay_protocol: chemical genetic growth profiling, strain panel (AID 1159580);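 further: tested at 20 µM; growth read once vehicle control cultures reached saturation at 30 °C; 1 = growth at the plate median or of vehicle wells; lower values mean less growth of the strain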
- settings: S. cerevisiae deletion strains, growth OD, locus YPR141C, strain kar3
The campaign covered roughly 5,500 compounds. About 2,000 (36%) were called active. Inconclusive results (about 18%) are left out. Cut-off read from the data, not from the text of the source: active = normalized growth mostly below about 0.91 (no sharp cut-off); inconclusive = no clear call, values can overlap the other calls; inactive = mostly above about 0.92. Some of the results follow.
Entry note: the call must match one of T (active), F (inactive)

These solved cases illustrate the format of a correct answer.
Ask: For COc1ccc(C(=O)/C=C/c2ccccc2)cc1 , what call appears in the results of this test?
Result: F

Ask: For Nc1ccc(C(=O)O)c(O)c1 (tested in a mixture with another compound) , what call appears in the results of this test?
Result: F

Ask: For C#CCOS(=O)OC1CCCCC1Oc1ccc(C(C)(C)C)cc1 (centres undefined) , what call appears in the results of this test?
Result: F

Further cases:
Ask: For O=c1c2ccccc2[se]n1-c1ccccc1 , what call appears in the results of this test?
Result: T
